Value source: ChEMBL document CHEMBL1121634

The entries below are paired with their reported pKi.
biological target: UniProtKB P56658; test: Inhibitor constant against adenosine deaminase in 0.05 M sodium phosphate buffer at pH 7.0 was determined after heating to 100 degrees celsius
Sequence (P56658 whole entry): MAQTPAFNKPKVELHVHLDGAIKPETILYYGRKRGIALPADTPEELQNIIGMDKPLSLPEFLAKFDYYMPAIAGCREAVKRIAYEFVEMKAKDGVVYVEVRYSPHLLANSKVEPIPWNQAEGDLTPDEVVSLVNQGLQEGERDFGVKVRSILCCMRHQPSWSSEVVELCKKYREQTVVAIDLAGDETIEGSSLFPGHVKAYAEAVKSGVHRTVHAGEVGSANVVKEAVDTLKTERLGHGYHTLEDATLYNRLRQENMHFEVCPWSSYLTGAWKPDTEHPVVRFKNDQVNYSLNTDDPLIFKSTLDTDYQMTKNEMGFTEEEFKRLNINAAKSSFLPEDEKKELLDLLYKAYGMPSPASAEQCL
By convention, pKi is the negative base-10 log of a molar concentration.

A selection of reference data follows.
molecule	numeric.value
Nc1ncnc2c1ncn2[C@@H](C=O)OCC=O	4.52
CC(O)[C@H](C=O)O[C@@H](C=O)n1cnc2c(N)ncnc21 (stereo in doubt; 9)	4.42
CC(O)[C@H](C=O)OC(C=O)n1cnc2c(N)ncnc21 (single isomer, unassigned)	4.68
CC(O)[C@H](C=O)O[C@@H](C=O)n1cnc2c(N)ncnc21 (stereo in doubt; 8)	4.16

query: Query: pKi; subject: `Nc1ncnc2c1ncn2[C@H](C=O)O[C@@H](C=O)CO`
result: 5.10
